# procedure.text: Metabolic stability in human liver microsomes assessed as half life in Phase II metabolic system at 10 uM measured by LC-UV method
# Format: ADME, Microsome
Hi there, I'd appreciate the recorded half-life at 10 µM for every entry that follows.
The answer is to be given in h; state only the numeric part.

Task: Which half-life at 10 µM is reported for this compound? COc1cc(/C=C2\Cc3ccc(N(CCCCCCCCCCCCO)CCCCCCCCCCCCO)cc3C2=O)ccc1O
Output: 1.95

Task: Need half-life at 10 µM of O=c1ccc2ccc(O)cc2o1 [UMBELLIFERONE] , thanks.
Output: 0.258

====

# procedure.text: Inhibition of porcine pancreatic lipase type 2
# Design: species or system Sus scrofa
Assignment: determine reported pIC50 for the given compounds.
Note on units: pIC50 is unitless, being -log10 of a concentration expressed in mol/L.

Task: Given CC(C)=CCc1c(O)ccc(C(=O)/C=C/c2ccc(O)cc2O)c1O , state its recorded pIC50.
Output: 5.21

Task: Given CC(C)=CCc1c(O)ccc(C(=O)/C=C/c2ccc(O)cc2)c1O , state its recorded pIC50.
Output: 5.48

Task: Consider the compound O=C1/C(=C/c2ccccc2)Cc2ccccc21 and give its measured pIC50.
Output: 4.65

Task: Param item = CC(C)=CCc1cc(C(=O)/C=C/c2ccc(O)cc2)c(O)cc1O ; retrieve measured pIC50.
Output: 5.24

====

# procedure.text: Metabolic stability in human liver microsomes assessed as half life in Phase I metabolic system at 10 uM measured by LC-UV method
# Assay type: ADME, Microsome
property.label: half-life at 10 µM (h)
Numeric answer only, unit h assumed.

Task: Would you kindly share the measured half-life at 10 µM for COc1cc(/C=C2\Cc3ccc(N(CCCCCCCCCCCCO)CCCCCCCCCCCCO)cc3C2=O)ccc1O ?
Output: 3.68

====

Field: IC50. Provide a value for each of the compounds that follow.
# subject.of.test: Pancreatic triacylglycerol lipase (Sus scrofa, UniProt P00591)
# Sequence (P00591 whole entry): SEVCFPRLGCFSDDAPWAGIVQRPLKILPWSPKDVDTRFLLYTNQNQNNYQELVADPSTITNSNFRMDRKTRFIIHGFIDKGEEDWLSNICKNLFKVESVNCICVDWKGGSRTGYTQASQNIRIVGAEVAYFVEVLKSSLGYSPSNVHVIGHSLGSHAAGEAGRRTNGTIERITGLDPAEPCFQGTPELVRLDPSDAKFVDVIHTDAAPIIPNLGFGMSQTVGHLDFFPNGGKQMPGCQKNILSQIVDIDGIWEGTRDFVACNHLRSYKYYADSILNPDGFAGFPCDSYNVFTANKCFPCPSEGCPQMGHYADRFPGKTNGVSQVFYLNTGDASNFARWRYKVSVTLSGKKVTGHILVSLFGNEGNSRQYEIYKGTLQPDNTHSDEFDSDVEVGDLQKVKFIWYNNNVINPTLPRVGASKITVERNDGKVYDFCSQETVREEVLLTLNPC
Lab note: write values as number then unit, every time.

Task: Give its IC50 value. Item: COc1cc(/C=C2\Cc3ccc(NCCC(C)CCCC(C)C)cc3C2=O)ccc1O (centres undefined)
Output: 2.52 µM

Task: // IC50 lookup, key: COc1cc(/C=C2\Cc3ccc(N)cc3C2=O)ccc1O
Output: 12.4 µM

Task: Endpoint output: IC50 of C=CCCCCCCCCN(CCCCCCCCC=C)c1ccc2c(c1)C(=O)/C(=C/c1ccc(O)c(OC)c1)C2 . Value?
Output: 0.58 µM

Task: Look up IC50 for this compound: COc1cc(/C=C2\Cc3ccc(O)cc3C2=O)cc(OC)c1OC
Output: 14.8 µM

Where do the numbers come from? From ChEMBL document CHEMBL4680290.
